Assay: Pharmacokinetics of CBD after oral administration, freely moving rats
Assay type: in vivo
Conditions: rat; CBD in plasma; PO 15 mg/kg in PNL formulation suspended (X10) in water, until 10 hours; n = 5; read-out: AUC0-10
Reported endpoint: AUC(0-t) (ng·h/mL)

Compound	Unit label	Obs value
C=C(C)[C@@H]1CCC(C)=C[C@H]1c1c(O)cc(CCCCC)cc1O [CBD, cannabidiol]	ng·h/mL	841

---

Test: Pharmacokinetics of CBD after IV administration, freely moving rats
Type: in vivo
Settings: rat, plasma; IV 1 mg/kg in PNL; n = 5; read-out: Volume of distribution

Molecule	Unit label	Vd
C=C(C)[C@@H]1CCC(C)=C[C@H]1c1c(O)cc(CCCCC)cc1O [CBD, cannabidiol]	L/kg	7.02
